# test_name: S. cerevisiae growth modulation with rapamycin, primary screen, strain BY4716, OD600, 96 h (AID 1091); note: test concentration not given here
# setup_conditions: higher = more signal, called active from +8 up or from −8 down
Each entry below lists one item and its recorded z-score value.
reported_endpoint: z-score

1) O=C1OCCC/C=C\[C@H]2OC34C=CCN(c5ccc6ccccc6c5)C(=O)[C@H]3N(CCCO)C(=O)[C@@H]4C12 (some centres undefined) :: -0.597
2) CCCCC(=C=CC[C@H](O)c1ccc(OCCO)cc1)C[C@H](O)COCc1ccccc1 :: -0.374
3) NC(=O)[C@H]1[C@@H]2C(=O)O[C@@H](c3ccccc3)[C@@H](c3ccccc3)N2[C@@H](c2ccc(O)cc2)[C@]12C(=O)Nc1ccc(C#CC3=CCCCC3)cc12 :: 2.1
4) COC(=O)[C@@]1(Cc2ccc(F)cc2)[C@H]2c3cc(C(=O)N(C)C)n(Cc4ccc(O)c(OC)c4)c3C[C@H]2CN1C(=O)c1ccccc1 :: 0.485

###

# test_name: CREB reporter modulators without forskolin, primary screen, cell-based, PC12, CRE-LacZ reporter, unstimulated (AID 1145)
# setup_conditions: no forskolin, luminescence, 4.5 h, higher = more signal, called active from +8 up or from −8 down
Activity calls are given as the source filed them.
reported_endpoint: z-score

1. C[C@@H]1ON(c2ccc(I)cc2)[C@H](c2ccc(OC(=O)OC(C)(C)C)cc2)[C@H]1C(=O)N1C(=O)OC[C@H]1Cc1ccccc1 :: -0.415 (inactive)
2. O=C1NC(=O)C2C1C=CC(C(O)c1ccccn1)N2Nc1ccc(Cl)cc1Cl (stereo not drawn) :: 0.0535 (inactive)
3. O=C1N(CCS(=O)(=O)c2ccccc2)Cc2ccccc2[C@@H]2OC(c3ccc(OCCCO)cc3)=N[C@]12CCS(=O)(=O)c1ccccc1 :: 3.2 (inactive)
4. C=CCNC(=O)[C@@H]1[C@H]2C(=O)O[C@H](c3ccccc3)[C@H](c3ccccc3)N2[C@H](c2ccc(O)cc2)[C@@]12C(=O)Nc1ccc(C#CCC(C(=O)OC)C(=O)OC)cc12 :: -0.608 (inactive)
5. COCCOC(=O)N1C(=O)[C@@]2(c3cc(C#Cc4ccc(OC)cc4)ccc31)[C@H](c1ccc(OCCO)cc1)N1[C@H](c3ccccc3)[C@H](c3ccccc3)OC(=O)[C@H]1[C@@H]2C(=O)Nc1nc2ccccc2s1 :: 0.272 (inactive)
6. C=C(CCCC)/C(=C/C[C@H](OC(C)=O)c1ccc(OCCO)cc1)c1cc(C(=O)OC)ccc1OC :: 8.05 (active)
7. COC(=O)C(CC#Cc1ccc2c(c1)[C@]1(C(=O)N2)[C@H](C(=O)Nc2nc3ccccc3s2)[C@H]2C(=O)O[C@H](c3ccccc3)[C@H](c3ccccc3)N2[C@@H]1c1ccc(OCCO)cc1)C(=O)OC :: 0.415 (inactive)
8. COC(=O)[C@@]1(Cc2ccccc2)[C@H]2c3cc(C(=O)N(C)C)n(CCn4cc([N+](=O)[O-])nc4C)c3C[C@H]2CN1C(=O)c1ccccc1 :: -0.379 (inactive)
9. CN(C)CCCNC(=O)[C@@H]1c2ccccc2C(=O)N(C2CCCCC2)[C@H]1c1ccc(CO)cc1 :: 1.24 (inactive)
10. CN(C)CCCCNC(=O)[C@H]1C[C@H]2C(=O)N[C@@H](CCCC[N+](C)(C)C)C(=O)N2[C@H]1c1ccc(O)cc1 :: -1.2 (inactive)
11. C=CCC(OC(C)=O)[C@@H]1[C@@H](N(Cc2ccc(-c3ccccc3)cc2)C(=O)c2ccc(C)cc2)c2cc(OCCCO)ccc2N1C(=O)Cc1ccc2ccccc2c1 (stereo partly drawn) :: 1.66 (inactive)
12. COCCOC(=O)N1C(=O)[C@@]2(c3cc(C#CCCO)ccc31)[C@H](c1ccccc1OCCO)N1[C@H](c3ccccc3)[C@H](c3ccccc3)OC(=O)[C@H]1[C@@H]2C(=O)N1CCCCCCC1 :: -1.15 (inactive)
13. CN1C(=O)C2C=CC(C(O)c3cc(C(F)(F)F)cc(C(F)(F)F)c3)N(Nc3ccccc3)C2C1=O (stereo not drawn) :: 0.626 (inactive)
